Test system: Sus scrofa
CONDITION CONTEXT: subchronic; duration: 42 days; oral; diet; M/F; Not specified; no effects
MEASUREMENT TYPE: LEL (mg/kg-day)

[[record]]
molecule = "C=CC(C)(O)CCC=C(C)C (centres undefined)"
system_under_test = "Sus scrofa"
measurement = 300

[[record]]
molecule = "COc1ccc2ccccc2c1"
system_under_test = "Sus scrofa"
measurement = 12

[[record]]
molecule = "OCCc1ccccc1"
system_under_test = "Sus scrofa"
measurement = 125

[[record]]
molecule = "Cc1csc(C(C)C)n1"
system_under_test = "Sus scrofa"
measurement = 15

[[record]]
molecule = "CC(C)CC(=O)OCCc1ccccc1 [Phenethyl isovalerate]"
system_under_test = "Sus scrofa"
measurement = 300


I: O=C1CCCCCCCCCCCCCCO1 [Pentadecan-15-olide]
II: CC1CCC(C(C)(C)S)C(=O)C1 (centres undefined)
III: CCCCCCC(=O)OCC [Ethyl heptanoate]
List the 3 entries from lowest LEL to highest LEL value. Use the labels to give the ranking in the order requested.
II, I, III

====

Test system: Gallus gallus
CONDITION CONTEXT: subchronic; duration: 36 days; oral; diet; M; Chicken; no effects
MEASUREMENT TYPE: LEL (mg/kg-day)

These solved cases illustrate the format of a correct answer.
[[record]]
compound = "CC(=O)OCCC(C)C [3-Methylbutyl acetate]"
system_under_test = "Gallus gallus"
measure_unit = "mg/kg-day"
measurement = 1250

[[record]]
compound = "CCCCCCC(=O)OCC [Ethyl heptanoate]"
system_under_test = "Gallus gallus"
measure_unit = "mg/kg-day"
measurement = 318


a: CC1CCC(C(C)(C)S)C(=O)C1 (centres undefined)
b: COc1ccc2ccccc2c1
Given a and given b , which shows the smaller recorded LEL? I would appreciate it if you answered with the label of your choice.
a
(a: 5 mg/kg-day, b: 12 mg/kg-day)

A: O=C1CCCCCCCCCCCCCCO1 [Pentadecan-15-olide]
B: Cc1csc(C(C)C)n1
C: C=CC(C)(O)CCC=C(C)C (centres undefined)
List the 3 entries from lowest LEL to highest LEL value. Use the labels to give the ranking in the order requested.
B, A, C

A: CC(C)CC(=O)OCCc1ccccc1 [Phenethyl isovalerate]
B: OCCc1ccccc1
I need your help: which of the pair A , B has higher LEL? I would appreciate it if you answered with the label of your choice.
A
(A: 300 mg/kg-day, B: 125 mg/kg-day)
